# Test Description: NCI Yeast Anticancer Drug Screen. Data for the bub3 strain (AID 167)
# Condition Parameters: S. cerevisiae bub3 mutant strain, at 50.0 µM, hits give high values
This is part of a sample that, as a whole, favours compounds with a hit. Of some 79,000 tested, about 15% had one in any assay.
Listed here are compounds together with their documented growth inhibition.
// return numeric value only (unit: %, not printed)

# annotated cases, reported growth inhibition shown
Compound	Readout Value
O=C1c2ccccc2C(O)(C#Cc2ccccc2)c2c1c(-c1ccccc1)c1ccccc1c2-c1ccccc1 (stereo not given)	-8.3
CC(=O)N(C)c1ccc(C)cc1	-4.2
CCN(CC)CCCC(C)Nc1ccnc2c(Cl)cccc12 (stereo not given)	5.2
CCOc1ccc2nc(NC(=O)C(=O)C(C#N)CC(C)(C)C=O)sc2c1 (stereo not given)	-12.6
CCCCN1CCSC1=S	99.5
CC(=O)CCC(=O)CC(=O)CCC(=O)Nc1cc(Cl)ccc1Cl	2.5
O=C(Nc1ccc(C(F)(F)F)cc1[N+](=O)[O-])C(=O)Nn1c(=S)[nH]c2ccccc2c1=O	7.9
CC(C)=CCC/C(C)=C/Cn1c(=O)cc[nH]c1=O	2.15

Input line: Query: growth inhibition; subject: `C[s+]1c2ccccc2c2ccccc21`
Output line: -13.2

Input line: Entry `Cc1ccc(S(=O)(=O)N(CCCc2c(Cl)nc(N)nc2Cc2ccccc2)c2ccccc2)cc1` has what growth inhibition?
Output line: -0.8

Input line: Would you kindly share the measured growth inhibition for `O=C1c2ccccc2C(=O)N1c1ccc(Cl)cc1` ?
Output line: 22.8

Input line: Field request: growth inhibition | item: `CO/N=C1C=C/C(=N\OC)C\1`
Output line: -19.1

* * *

# Test Description: NCI Yeast Anticancer Drug Screen. Data for the bub3 strain (AID 167)
# Condition Parameters: S. cerevisiae bub3 mutant strain, at 50.0 µM, hits give high values
Compounds without any hit were thinned out: in the full panel of roughly 79,000, 15% have a hit.
Recorded growth inhibition for the following compounds
Kindly answer with a numeric value in %, unit omitted.

Recorded results for 6 compounds are shown here.
Compound	growth inhibition (%)
Clc1ccc(Cl)c(NNc2cc(Cl)ccc2Cl)c1	-39.5
Cc1cccc(C)c1Nc1n[nH]c(=S)s1	44.5
Nc1ncnc2c1[nH]c(=O)n2-c1ccccc1	-17.1
COC(=O)C1(O)C(=O)NC2=C1C(=O)c1ccccc1C2=O (configuration not stated)	28.9
COC(=O)c1c(C)cc(OC)c(C/C=C(\C)CCCc2coc(C=C(C)C)c2)c1OC	12.4
OC(C(c1ccccc1)N1CCCCC1)C(O)(c1ccccc1)c1ccccc1 (configuration not stated)	6.2

Input line: For `O=C(O)CCC(=O)OCc1ccccc1` , what is its reported growth inhibition?
Output line: -11.2

* * *

# Test Description: NCI Yeast Anticancer Drug Screen. Data for the mec2-1 strain (AID 157)
# Condition Parameters: S. cerevisiae mec2-1 strain, at 50.0 µM, hits give high values
Compounds without any hit were thinned out: in the full panel of roughly 79,000, 15% have a hit.
Measurement Kind: growth inhibition (%)
Provide only the numeric value, understood in %.

Input line: Sample C/C=C/c1ccc2oc(-c3ccc(OC4OC(C)C(O)C(O)C4O)cc3)c(C)c2c1 (stereo not drawn) — what was its growth inhibition?
Output line: 99

Input line: What value of measured growth inhibition is listed for `CON(C)S(=O)(=O)c1ccc(Cl)cc1` ?
Output line: -9.5

Input line: Requested field: growth inhibition. Item: `C=CC(=O)OCCCS(=O)(=O)[O-].C=CC(=O)OCCCS(=O)(=O)[O-].NC1CCCCC1N.[Pt+4]`
Output line: -7.75

Input line: Fill in the blank: the reported growth inhibition of `Cn1c(=O)c2[nH]c(CCNC(=O)c3ccccc3)nc2n(C)c1=O` is ____.
Output line: -9.75

Input line: Return reported growth inhibition; argument: CC1c2c(ccc3ccccc23)CCC1CC1CCCc2ccc3ccccc3c21 (stereo not drawn)
Output line: -6.15

Input line: Give the measured growth inhibition of COC(=O)C(C)Oc1ccccc1 (stereo not drawn) .
Output line: -28.2

Input line: GET /values?readout=growth inhibition&item= `O=C(NCCSC(=O)Nc1ccccc1)Nc1ccccc1`
Output line: 14.8

Input line: Entry CCC1C(=O)Nc2ccccc21 (stereo not drawn) has what growth inhibition?
Output line: 16.9

Input line: What does the data say about its growth inhibition? Entry: COc1ccc2nc3cc(Cl)ccc3c(NCCCC3CCCN4CCCCC34)c2c1 (stereo not drawn)
Output line: 40.5

Input line: Look at this compound and give its reported growth inhibition. `NCCCCCCNCc1cccc2ccccc12`
Output line: -13.1

Input line: Request the reported growth inhibition associated with `COc1cc2oc(=O)ccc2cc1CC=C(C)C`
Output line: -26.2

* * *

# Test Description: NCI Yeast Anticancer Drug Screen. Data for the bub3 strain (AID 167)
# Condition Parameters: S. cerevisiae bub3 mutant strain, at 50.0 µM, hits give high values
This is part of a sample that, as a whole, favours compounds with a hit. Of some 79,000 tested, about 15% had one in any assay.
Measurement Kind: growth inhibition (%)
Write the number in % without appending the unit.

Input line: Give its growth inhibition value. Item: CC1=NNC(c2ccco2)C1 (stereo unspecified)
Output line: 11.9

* * *

# Test Description: NCI Yeast Anticancer Drug Screen. Data for the cln2 rad14 strain (AID 165);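 note: 0% = growth equal to vehicle treated cultures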
# Condition Parameters: S. cerevisiae cln2 rad14 strain, at 50.0 µM, hits give high values
This is part of a sample that, as a whole, favours compounds with a hit. Of some 79,000 tested, about 15% had one in any assay. Activity calls are given as the source filed them. No stated cut-off is given here; in the data, active means growth inhibition above about 70%; inactive means the rest.
Measurement Kind: growth inhibition

Sample answers from the record:
Compound	growth inhibition
Clc1ccc2noc(-c3ccccc3)c2c1	0.85% (inactive)
O=C(N/N=C/C=C/c1ccccc1)c1ccccc1O	-31.7% (inactive)
FC(F)(F)c1nc(=S)c2cn[nH]c2[nH]1	-12.2% (inactive)
CC1C=CCC2C(=O)OC(=O)C12 (centres undefined)	-3.8% (inactive)
CCC1(C)C(=O)NC(=O)N1C(C)=O (centres undefined)	-44.2% (inactive)
Cc1ccc(NC(=O)Nc2ccc(Cl)c(Cl)c2)c(C)c1	-16.6% (inactive)
COC(=O)/C=C\n1c(C)cc(=O)[nH]c1=O	-4.75% (inactive)
CC(=O)OCC1OC(OC(C)=O)C(NC(=O)C[NH-])C(OC(C)=O)C1OC(C)=O.CC(=O)OCC1OC(OC(C)=O)C(NC(=O)C[NH-])C(OC(C)=O)C1OC(C)=O.[Cl][Pt+2][Cl] (centres undefined)	-42.9% (inactive)

Input line: What does the record list as growth inhibition for `CC1=NOC(=O)/C1=C/c1ccccc1C` ?
Output line: 8.15% (inactive)

Input line: Which growth inhibition is listed for `N#Cc1ccccc1C(Cl)(Cl)c1cnccn1` ?
Output line: 29.9% (inactive)

Input line: Entry COC(=O)CC1(O)C=C(C)C(=O)c2ccccc21 (centres undefined) has what growth inhibition?
Output line: -19% (inactive)

Input line: Would you kindly share the measured growth inhibition for CC(COc1ccccc1)OC(=O)CCl (centres undefined) ?
Output line: -16.9% (inactive)

Input line: Param item = `CCOC(=O)/C=C/SCCCN` ; retrieve measured growth inhibition.
Output line: -22.3% (inactive)

Input line: # lookup: growth inhibition of `C/C(Nc1ccc(F)cc1)=C1/CCOC1=O`
Output line: -43.5% (inactive)

Input line: Quick one: growth inhibition of `Cc1cc(O)c(C(C)C)cc1CN1CCCCC1` ?
Output line: 0.15% (inactive)

* * *

# Test Description: NCI Yeast Anticancer Drug Screen. Data for the cln2 rad14 strain (AID 165);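 note: 0% = growth equal to vehicle treated cultures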
# Condition Parameters: S. cerevisiae cln2 rad14 strain, at 50.0 µM
The panel holds about 79,000 compounds, 15% with a hit somewhere; the sample as a whole holds those more often. The source made the active and inactive calls. No stated cut-off is given here; in the data, active means growth inhibition above about 70%; inactive means the rest.
Hi there, use one of these labels in your reply, thanks! active, inactive

Molecule	Qualitative Label
CC(C)OCN1COCN=C1NC#N	inactive

Input line: // param item: `CCOc1ccc(-n2c(=O)c(N=Nc3ccccc3Cl)c(O)n(-c3ccc(Br)cc3)c2=S)cc1` ; yields the recorded call
Output line: inactive

* * *

Attribute: growth inhibition
# Test Description: NCI Yeast Anticancer Drug Screen. Data for the bub3 strain (AID 167)
# Condition Parameters: S. cerevisiae bub3 mutant strain, at 50.0 µM, hits give high values
The panel holds about 79,000 compounds, 15% with a hit somewhere; the sample as a whole holds those more often.
Express it in %; write the number only.

Answered examples (4):
Molecule	Readout Value
O=c1oc2ccccc2cc1S(=O)(=O)c1ccccc1	-0.95
CC[N+](CC)(CC)CCO	-11.5
C/C(=N/NC(N)=O)C1=CCCC1	7.55
CCCC1c2c(cc(=O)[nH]c2O)C(=O)N1Cc1ccccc1 (centres undefined)	-17.6

Input line: Endpoint output: growth inhibition of `Cc1ccc(C(C)C)nc1` . Value?
Output line: 22.5

Input line: Item under review: `CC(C)=CCC/C(C)=C/CO` . Reported growth inhibition?
Output line: -47.8

Input line: I'd like to know its growth inhibition. The molecule in question is `CCCCC(C(=O)OCC)C(=O)OCC`
Output line: -2.75

Input line: Would you kindly share the measured growth inhibition for COc1ccc(/C=[N+](\[O-])c2ccccc2)cc1 (tested in a mixture with another compound) ?
Output line: -10.8
